System: HCT116-C9-C4
Experiment: Cell growth inhibition assay (MTT, 72 h) on E7070-resistant HCT116-C9-C4
Assay type: cell-based
Details: Homo sapiens, Example 7, read-out: antiproliferative activity, IC50
Method: An E7070-resistant cell line was used to assess the antiproliferative activities of E7820, LY186641, LY295501, LY-ASAP and CQS. […] Three cell lines, i.e., HCT116-C9, HCT116-C9-C1 and HCT116-C9-C4, were each seeded at 3000 cells/well onto a 96-well microplate (flat bottom) (50 μl/well). […] Seventy-two hours later, the antiproliferative activities were assessed by MTT method (Mossmann T., J. Immunol. Methods, 1983, 65, 55-63). […]
experimental.endpoint: IC50 (µM)
# output: bare number, implied unit µM

compound	unit.abbreviation	IC50
O=C(NS(=O)(=O)c1ccc(Br)s1)c1ccc(Cl)cc1Cl [LY573636]	µM	240

Turning to the following compound.
Incoming: Given the entry NS(=O)(=O)c1ccc(S(=O)(=O)Nc2cccc3c(Cl)c[nH]c23)cc1 [E7070] , what IC50 was observed with HCT116-C9-C4?
Outgoing: 28

* * *

test system: HCT116-C9-C4; assay: Cell growth inhibition assay (MTT, 72 h) on E7070-resistant HCT116-C9-C4; format: cell-based; conditions: Homo sapiens, Example 6, read-out: antiproliferative activity, IC50
In this section we review reported pIC50 values for a set of compounds.
pIC50 here: minus log base 10 of the concentration, concentration in moles per litre.

Worked cases, answers included:
compound	quantitative.result
Cc1ccc(NS(=O)(=O)c2cccc(C#N)c2)c2[nH]cc(C#N)c12	4.28
O=C(NS(=O)(=O)c1ccc(Cl)cc1)c1ccc(Cl)cc1Cl	4.04
O=C(Nc1ccc(Cl)c(Cl)c1)NS(=O)(=O)c1ccc2c(c1)CCO2	3.96
NS(=O)(=O)c1ccc(S(=O)(=O)Nc2cccc3c(Cl)c[nH]c23)cc1	4.57
O=C(Nc1ccc(Cl)cc1)NS(=O)(=O)c1ccc2c(c1)CCC2	3.86

Now for the compound whose pIC50 we want.
Incoming: Consider the compound shown here: Nc1ccc(S(=O)(=O)Nc2cnc3c(Cl)cccc3n2)cc1 [CQS, 2-sulfanylamide-5-chloroquinoxaline] What is its recorded pIC50?
Outgoing: 3.29

* * *

tested on: HCT116-C9; assay: Cell growth inhibition assay (MTT, 72 h) on HCT116-C9; assay type: cell-based; settings: Homo sapiens, Example 7, read-out: antiproliferative activity, IC50
experimental.endpoint: pIC50
Quick note: pIC50 values are minus log10 of concentrations in mol/L.

Incoming: Which pIC50 is listed for O=C(NS(=O)(=O)c1ccc(Br)s1)c1ccc(Cl)cc1Cl ?
Outgoing: 5.29

* * *

System: HCT116-C9-C1
Test: Cell growth inhibition assay (MTT, 72 h) on E7070-resistant HCT116-C9-C1
Assay type: cell-based
Settings: Homo sapiens, Example 7, read-out: antiproliferative activity, IC50
Procedure: An E7070-resistant cell line was used to assess the antiproliferative activities of E7820, LY186641, LY295501, LY-ASAP and CQS. […] Three cell lines, i.e., HCT116-C9, HCT116-C9-C1 and HCT116-C9-C4, were each seeded at 3000 cells/well onto a 96-well microplate (flat bottom) (50 μl/well). […] Seventy-two hours later, the antiproliferative activities were assessed by MTT method (Mossmann T., J. Immunol. Methods, 1983, 65, 55-63). […]
Item-by-item account of pIC50
Just the number, please; pIC50 means minus log10 of the concentration in mol/L.

Incoming: Which pIC50 is listed for O=C(NS(=O)(=O)c1ccc(Br)s1)c1ccc(Cl)cc1Cl [LY573636] ?
Outgoing: 3.58

Incoming: Form field: reported pIC50 of NS(=O)(=O)c1ccc(S(=O)(=O)Nc2cccc3c(Cl)c[nH]c23)cc1 [E7070]
Outgoing: 4.49
